- methodNotes: log P
- Assay type: physicochemical
- Source text: The term “log P” refers to the partition coefficient of a compound. The partition coefficient is the ratio of concentrations of un-ionized compound in each of two solution phases, for example, octanol and water. To measure the partition coefficient of ionizable solute compounds, the pH of the aqueous phase is adjusted such that the predominant form of the compound is un-ionized. […]
measurementLabel: log P

CC(C)=CC(CC(C)(C)c1ccc(C(F)(F)F)cc1)N1CCC(OC(C)C)CC1 (stereo not drawn) yielded log P of 6.27

CC(C)=CC(CC(C)(C)c1ccc(Cl)cc1)N1CCC(C2CCOCC2)CC1 (stereo not drawn) yielded log P of 6.31

CC(C)=C[C@H](CC(C)(C)c1ccc(Cl)cc1)N1CCC[C@@H]1CO yielded log P of 5.04

CC(C)=CC(CC(C)(C)c1ccc(C(F)(F)F)cc1)N1CCC(C(F)(F)F)CC1 (stereo not drawn) yielded log P of 6.95

CC(C)=CC(CC(C)(C)c1ccc(C)cc1)NCC1CCOCC1 (stereo not drawn) yielded log P of 5.21

CC(C)=CC(NCC(C)C)C(C)(C)Oc1ccc(Cl)cc1 (stereo not drawn) yielded log P of 5.42
